Target or test system: SARS-CoV-2 3CL protease (Severe acute respiratory syndrome coronavirus 2)
Assay text: Inhibitory activity test against SARS-CoV-2 3CL proteases
Type: biochemical
Reported conditions: read-out: IC50 (50% SARS-CoV-2 3CL protease inhibitory concentration)
Reported IC50 is given for each of the following compounds.
Reported property: IC50

{"Compound": "COc1cc(-c2cc(CC(=O)O)ccc2Cl)cc2c1c(=O)n(-c1cncc(Cl)c1)c(=O)n2Cc1cc(Cl)ccc1C [Compound I-0198]", "Reported property": "IC50", "Data value": "< 100 nM"}
{"Compound": "COC[C@@H]1CCN(c2cc3c(c(OC)n2)c(=O)n(-c2cncc(Cl)c2)c(=O)n3-c2ccc(F)c(Cl)c2)C1 [Compound I-1008]", "Reported property": "IC50", "Data value": "< 100 nM"}
{"Compound": "Cn1cnc(Cn2c(=O)c3c(F)cc(-c4cc5c(cc4Cl)NC(=O)C54CC4)cc3n(Cc3cc(F)c(F)c(F)c3)c2=O)n1 [Compound I-0119]", "Reported property": "IC50", "Data value": "23 nM"}

* * *

Target or test system: SARS-CoV-2 3CL protease (Severe acute respiratory syndrome coronavirus 2, UniProt P0DTD1)
Assay text: Inhibitory activity test against SARS-CoV-2 3CL proteases
Assay type: biochemical
Reported conditions: read-out: IC50 (50% SARS-CoV-2 3CL protease inhibitory concentration)

{"Compound": "CNC(=O)c1ccc(Cl)c(-c2ccc3c(=O)n(Cc4ccc[nH]c4=O)c(=O)n(Cc4cc(F)c(F)c(F)c4)c3c2)c1 [Compound I-0285]", "IC50": "< 100 nM"}
{"Compound": "COc1nc(N2CC(O)(C(F)(F)F)C2)cc2c1c(=O)n(-c1cnc3cc(F)ccn13)c(=O)n2-c1ccc(F)c(Cl)c1 [Compound I-0753]", "IC50": "21 nM"}
{"Compound": "CCn1c(-c2cc(C#N)ccc2Cl)cc2c(c1=O)c(=O)n(-c1cnc3cc(F)ccn13)c(=O)n2Cc1cc(F)c(F)c(F)c1 [Compound I-0739]", "IC50": "0.98 nM"}
{"Compound": "Cn1cnc(Cn2c(=O)c3ccc(N4C[C@H]5C[C@@H]4CN5)cc3n(Cc3cc(F)c(F)c(F)c3)c2=O)n1 [Compound I-0393]", "IC50": "< 100 nM"}
{"Compound": "COc1cc(-c2cc(C(C)=O)ccc2Cl)cc2c1c(=O)n(Cc1ncn(C)n1)c(=O)n2Cc1cc(F)c(F)cc1F [Compound I-0282]", "IC50": "< 100 nM"}
{"Compound": "COc1nc2c(=O)n(Cc3ncn(C)n3)c(=O)n(Cc3cc(F)c(F)c(Cl)c3)c2cc1-c1ncc(F)cc1Cl [Compound I-0578]", "IC50": "< 100 nM"}
{"Compound": "COc1cc(-c2cc(C#N)ccc2Cl)cc2c1c(=O)n(-c1cncc(C)c1)c(=O)n2Cc1cc(F)c(F)c(F)c1 [Compound I-0026]", "IC50": "6.5 nM"}
{"Compound": "COc1nc(N2CC[C@@H](C#N)C2)cc2c1c(=O)n(-c1cncc(C(F)F)c1)c(=O)n2-c1ccc(F)c(Cl)c1 [Compound I-0945]", "IC50": "< 100 nM"}
{"Compound": "Cn1cnc(Cn2c(=O)c3c(cc(-c4cc(C#N)ccc4Cl)n4ncnc34)n(Cc3cc(F)c(F)c(F)c3)c2=O)n1 [Compound I-0645]", "IC50": "100 to 1000 nM"}
{"Compound": "COc1nc(N(C)C(C)C)cc2c1c(=O)n(-c1cnc3cc(F)ccn13)c(=O)n2-c1ccc(F)c(Cl)c1 [Compound I-1034]", "IC50": "< 100 nM"}
{"Compound": "COc1nc2c(=O)n(Cc3ncn(C)n3)c(=O)n(Cc3cc(F)c(F)c(Cl)c3)c2cc1-c1cc(C(C)(C)O)c(F)cc1Cl [Compound I-0816]", "IC50": "< 100 nM"}
{"Compound": "COc1cc(-c2cc3cn[nH]c3cc2Cl)cc2c1c(=O)n(-c1cncc(C)c1)c(=O)n2Cc1cc(C#N)c(F)cc1C [Compound I-0163]", "IC50": "1.1 nM"}
{"Compound": "COc1nc2c(=O)n(Cc3ncn(C)n3)c(=O)n(Cc3cc(Cl)c(F)cc3Cl)c2cc1-c1cc(C#N)ccc1Cl [Compound I-0551]", "IC50": "< 100 nM"}
{"Compound": "COc1nc2c(=O)n(Cc3ncn(C)n3)c(=O)n(Cc3cc(Cl)c(F)cc3C)c2cc1-c1cc(C(C)(C)O)ccc1Cl [Compound I-0822]", "IC50": "< 100 nM"}
{"Compound": "COc1nc(N2CCCC2)cc2c1c(=O)n(-c1cnc3cc(F)ccn13)c(=O)n2-c1ccc(F)c(Cl)c1 [Compound I-0752]", "IC50": "< 100 nM"}
{"Compound": "Cn1cnc(Cn2c(=O)c3c(F)c(Cl)c(-c4cc5c(cc4Cl)NC(=O)C5)cc3n(Cc3cc(F)c(F)c(Cl)c3)c2=O)n1 [Compound I-0492]", "IC50": "< 100 nM"}
{"Compound": "COc1nc(NC2CCC2)cc2c1c(=O)n(-c1cnc3cc(F)ccn13)c(=O)n2-c1ccc(F)c(Cl)c1 [Compound I-1053]", "IC50": "< 100 nM"}
{"Compound": "COc1ccc(Cl)c(-c2cc3c(nc2OC)c(=O)n(Cc2ncn(C)n2)c(=O)n3Cc2cc(F)c(F)c(Cl)c2)n1 [Compound I-0820]", "IC50": "< 100 nM"}
{"Compound": "Cc1cncc(-n2c(=O)c3c(F)cc(-c4cc(C(N)=O)ccc4Cl)cc3n(Cc3cc(F)c(F)c(F)c3)c2=O)c1 [Compound I-0073]", "IC50": "< 100 nM"}
{"Compound": "COc1nc2c(=O)n(Cc3ncn(C)n3)c(=O)n(Cc3cc(F)c(F)c(Cl)c3)c2cc1-c1nc(C)ccc1Cl [Compound I-0579]", "IC50": "5.8 nM"}
{"Compound": "COc1nc2c(=O)n(Cc3ncn(C)n3)c(=O)n(Cc3cc(F)c(F)c(Cl)c3)c2cc1-c1nc(C(=O)NC2COC2)ccc1Cl [Compound I-0885]", "IC50": "< 100 nM"}
{"Compound": "COc1nc2c(=O)n(Cc3ncn(C)n3)c(=O)n(Cc3cc(Cl)ccc3C)c2cc1-c1cc(C#N)ccc1Cl [Compound I-0717]", "IC50": "< 100 nM"}
{"Compound": "Cl.[2H]C([2H])([2H])O[C@@H]1CCN(c2cc3c(c(OC)n2)c(=O)n(-c2cnc4cc(F)c(F)cn24)c(=O)n3-c2ccc(F)c(Cl)c2)C1 [Compound I-0962]", "IC50": "< 100 nM"}
{"Compound": "CC(C)Nc1cc2c(c(=O)n(Cc3ncn(C)n3)c(=O)n2Cc2cc(F)c(F)c(F)c2)c2ncn(C)c12 [Compound I-0553]", "IC50": "100 to 1000 nM"}
{"Compound": "COc1nc(N2CCC(F)(F)C2)cc2c1c(=O)n(-c1cnc3cc(F)c(Cl)cn13)c(=O)n2-c1ccc(F)c(Cl)c1 [Compound I-0655]", "IC50": "< 100 nM"}
{"Compound": "COc1cc(-c2cc(C#N)ccc2Cl)cc2c1c(=O)n(Cc1ncn(C)n1)c(=O)n2Cc1cc(F)c(F)c(F)c1F [Compound I-0053]", "IC50": "30 nM"}

* * *

Reported pIC50 is given for each of the following molecules.
Target or test system: SARS-CoV-2 3CL protease (Severe acute respiratory syndrome coronavirus 2, UniProt P0DTD1)
Assay text: Inhibitory activity test against SARS-CoV-2 3CL proteases
Format: biochemical
Reported conditions: read-out: IC50 (50% SARS-CoV-2 3CL protease inhibitory concentration)
pIC50: −log10 of the molar value.
Reported property: pIC50

{"Molecule": "COc1nc2c(=O)n(Cc3ncn(C)n3)c(=O)n(Cc3ccc(F)c(Cl)c3)c2cc1-c1cc(C#N)ccc1Cl [Compound I-0726]", "Reported property": "pIC50", "Data value": "> 7.00"}
{"Molecule": "COc1nc(N2CCC(n3cccn3)C2)cc2c1c(=O)n(-c1cnc3cc(F)ccn13)c(=O)n2-c1ccc(F)c(Cl)c1 (stereo not shown) [Compound I-0975]", "Reported property": "pIC50", "Data value": "> 7.00"}
{"Molecule": "COc1nc(N2CC[C@@H](C#N)C2)cc2c1c(=O)n(-c1cnc3cc(F)ccn13)c(=O)n2Cc1cc(F)c(F)c(F)c1 [Compound I-0732]", "Reported property": "pIC50", "Data value": "> 7.00"}
{"Molecule": "COc1nc(N2C[C@H](F)[C@@H](F)C2)cc2c1c(=O)n(-c1cnc3cc(F)ccn13)c(=O)n2-c1ccc(F)c(Cl)c1 [Compound I-0748]", "Reported property": "pIC50", "Data value": "> 7.00"}
{"Molecule": "COC[C@@H]1CCN(c2cc3c(c(OC)n2)c(=O)n(-c2cnc4cc(F)ccn24)c(=O)n3-c2ccc(F)c(Cl)c2)C1 [Compound I-1033]", "Reported property": "pIC50", "Data value": "> 7.00"}
{"Molecule": "Cn1c(-c2cc(C#N)ccc2Cl)cc2c(c1=O)c(=O)n(-c1cnc3ccc(F)cn13)c(=O)n2Cc1cc(F)c(F)c(F)c1 [Compound I-0681]", "Reported property": "pIC50", "Data value": "> 7.00"}
{"Molecule": "Cn1c(-c2cc(C#N)ccc2Cl)cc2c(c1=O)c(=O)n(-c1cncc(Cl)c1)c(=O)n2Cc1cc(F)c(F)c(F)c1 [Compound I-0435]", "Reported property": "pIC50", "Data value": 9.00}
{"Molecule": "Cn1cnc(Cn2c(=O)c3c4nccnc4c(N4CC[C@@H](O)C4)cc3n(Cc3cc(F)c(F)c(F)c3)c2=O)n1 (racemic) [Compound I-0552]", "Reported property": "pIC50", "Data value": "> 7.00"}
{"Molecule": "COc1nc(N2C[C@@H]3CC[C@H]2CN3)cc2c1c(=O)n(-c1cncc(Cl)c1)c(=O)n2Cc1cc(F)c(F)c(Cl)c1 [Compound I-0540]", "Reported property": "pIC50", "Data value": "> 7.00"}
{"Molecule": "COc1nc(N2CC[C@@H](C#N)C2)cc2c1c(=O)n(Cc1ncn(C)n1)c(=O)n2Cc1cc(F)c(F)c(F)c1 [Compound I-0598]", "Reported property": "pIC50", "Data value": 7.74}
{"Molecule": "COc1cc(-c2cc(C(=O)NCCN(C)C)ccc2Cl)cc2c1c(=O)n(Cc1ncn(C)n1)c(=O)n2Cc1cc(F)c(F)c(F)c1 [Compound I-0212]", "Reported property": "pIC50", "Data value": "> 7.00"}
{"Molecule": "COc1nc(N2CC[C@@H](F)C2)cc2c1c(=O)n(-c1cnc3cc(F)ccn13)c(=O)n2Cc1cc(F)c(F)c(F)c1 [Compound I-0673]", "Reported property": "pIC50", "Data value": "> 7.00"}
{"Molecule": "C=Cc1nc2c(=O)n(Cc3ncn(C)n3)c(=O)n(Cc3cc(F)c(F)c(F)c3)c2cc1-c1cc(C#N)ccc1Cl [Compound I-0705]", "Reported property": "pIC50", "Data value": "> 7.00"}
